Where do these numbers come from? They come from patent US20250115598A1.

Target: endogenous MLKL in U937 (Homo sapiens (Human), UniProt Q8NB16)
Sequence (Q8NB16 whole entry): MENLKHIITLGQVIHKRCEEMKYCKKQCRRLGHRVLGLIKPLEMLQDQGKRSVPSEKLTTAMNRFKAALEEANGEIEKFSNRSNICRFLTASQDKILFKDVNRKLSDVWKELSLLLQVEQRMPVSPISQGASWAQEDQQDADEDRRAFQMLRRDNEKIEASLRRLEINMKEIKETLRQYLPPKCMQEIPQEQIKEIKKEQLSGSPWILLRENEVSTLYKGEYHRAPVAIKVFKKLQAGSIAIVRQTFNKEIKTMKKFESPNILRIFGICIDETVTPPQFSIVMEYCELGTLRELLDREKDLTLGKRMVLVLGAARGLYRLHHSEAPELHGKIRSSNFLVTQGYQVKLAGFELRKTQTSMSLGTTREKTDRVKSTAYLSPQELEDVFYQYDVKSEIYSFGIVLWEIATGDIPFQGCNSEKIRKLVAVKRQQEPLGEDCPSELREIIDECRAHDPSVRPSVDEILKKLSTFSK
Test: Degradation assay: endogenous MLKL in U937 (western blot)
Conditions: U937, 24 h incubation, read-out: Degradation of endogenous MLKL in U937 (DC50 cell-based assay)
Experimental: Degradation Assay: Screening Compounds Procedure to Evaluate the Activity of Compounds in Degrading Endogenous MLKL in Human and Mouse Cell […] Membranes were blocked with 5% skim milk in TBST. […] The signal was detected as described above. The band intensity was measured in the ImageLab Software (BIO-RAD) and the MLKL values adjusted for loading with GAPDH. The percentage of degradation was calculated by normalizing the compound treated values to the DMSO only control.

MOLECULE	ASSAYED SYSTEM	DC50
Cc1ncsc1-c1ccc(CNC(=O)[C@@H]2C[C@@H](O)CN2C(=O)[C@@H](NC(=O)CCOCCCn2cc(-c3cnc(N)c4c(-c5ccc(NS(=O)(=O)C(F)F)c(O[C@@H](C)c6ccc(F)cc6)c5)nn(C)c34)cn2)C(C)(C)C)cc1 [Compound 1040]	endogenous MLKL in U937 (Homo sapiens (Human), UniProt Q8NB16)	1000 to 10000 nM
CCS(=O)(=O)Nc1ccc(-c2n[nH]c3c(-c4cnn(CCCCCCC(=O)N[C@H](C(=O)N5C[C@H](O)C[C@H]5C(=O)NCc5ccc(-c6scnc6C)cc5)C(C)(C)C)c4)cnc(N)c23)cc1OCc1ccc(F)cc1 [Compound 1003]	endogenous MLKL in U937 (Homo sapiens (Human), UniProt Q8NB16)	1000 to 10000 nM
Cn1nc(-c2ccc(NS(=O)(=O)C(F)F)c(F)c2)c2c(N)ncc(-c3cnn(C4CCN(Cc5cccc(CNc6cccc7c6C(=O)N(C6CCC(=O)NC6=O)C7=O)c5)CC4)c3)c21 (stereo not shown) [Compound 1122]	endogenous MLKL in U937 (Homo sapiens (Human), UniProt Q8NB16)	< 1000 nM
C[C@H](Oc1cc(-c2nn(C)c3c(-c4cnn(C5CCN(CCCN6CCN(C(=O)COc7cccc8c7C(=O)N(C7CCC(=O)NC7=O)C8=O)CC6)CC5)c4)cnc(N)c23)ccc1NS(=O)(=O)C(F)F)c1ccc(F)cc1 (stereo partly shown) [Compound 1099]	endogenous MLKL in U937 (Homo sapiens (Human), UniProt Q8NB16)	< 1000 nM

* * *

Target: endogenous MLKL in MDF (Mus musculus (Mouse), UniProt Q9D2Y4)
Sequence (Q9D2Y4 whole entry): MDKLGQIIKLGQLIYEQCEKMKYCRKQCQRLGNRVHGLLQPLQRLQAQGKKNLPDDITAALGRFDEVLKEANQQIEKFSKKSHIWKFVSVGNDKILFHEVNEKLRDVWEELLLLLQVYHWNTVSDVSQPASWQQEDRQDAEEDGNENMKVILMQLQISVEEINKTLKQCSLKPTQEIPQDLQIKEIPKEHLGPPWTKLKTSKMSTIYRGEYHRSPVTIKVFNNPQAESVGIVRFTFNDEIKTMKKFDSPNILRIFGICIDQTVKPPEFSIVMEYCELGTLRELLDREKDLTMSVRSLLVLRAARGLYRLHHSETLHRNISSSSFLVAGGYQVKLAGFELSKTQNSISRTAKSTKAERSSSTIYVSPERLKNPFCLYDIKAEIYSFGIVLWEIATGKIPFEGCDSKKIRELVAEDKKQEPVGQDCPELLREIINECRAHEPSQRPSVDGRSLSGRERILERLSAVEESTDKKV
Experiment: Degradation assay: endogenous MLKL in MDF (western blot)
Conditions: MDF cells, 24 h incubation with compound, MLKL adjusted for loading with GAPDH, normalized to DMSO only control, read-out: Degradation of endogenous MLKL in MDF (DC50 cell-based assay)
Experimental: Degradation Assay: Screening Compounds Procedure to Evaluate the Activity of Compounds in Degrading Endogenous MLKL in Human and Mouse Cell […] Membranes were blocked with 5% skim milk in TBST. […] The signal was detected as described above. The band intensity was measured in the ImageLab Software (BIO-RAD) and the MLKL values adjusted for loading with GAPDH. The percentage of degradation was calculated by normalizing the compound treated values to the DMSO only control.

COMPOUND	DC50
CCS(=O)(=O)Nc1ccc(-c2nn(C)c3c(-c4cnn(C5CCN(C(=O)[C@H]6C[C@H](Nc7cccc8c7C(=O)N(C7CCC(=O)NC7=O)C8=O)C6)CC5)c4)cnc(N)c23)cc1F (stereo partly drawn)	< 1000 nM
C[C@H](Oc1cc(-c2nn(C)c3c(-c4cnn(C5CCN(C(=O)COC6CCN(c7cccc8c7C(=O)N(C7CCC(=O)NC7=O)C8=O)CC6)CC5)c4)cnc(N)c23)ccc1NS(=O)(=O)C(F)F)c1ccc(F)cc1 (stereo partly drawn)	< 1000 nM
C[C@H](Oc1cc(-c2nn(C)c3c(-c4cnn(C5CCN(C(=O)[C@]6(F)C[C@H](Nc7cccc8c7C(=O)N(C7CCC(=O)NC7=O)C8=O)C6)CC5)c4)cnc(N)c23)ccc1NS(=O)(=O)C(F)F)c1ccc(F)cc1 (stereo partly drawn)	< 1000 nM
